A collection of sequences and their measured soluble fraction (log2)
test-description: soluble fraction after stress (log2 fold change); higher = more stays soluble; pooled small domains, quantitative proteomics
assay-context: stress: 50 degC
Please reply with the value in numeric form only.

Before answering, review these 5 worked examples.
>  <record-sequence>
HMDLGLTDDQRLVYGLLSPTVPRSSGELLGMVDFGRSKLSRILKELIELGQVFTVGVGRGLKYKRG

>  <soluble fraction (log2)>
-0.307

$$$$
>  <record-sequence>
HMVKDIEFSLPLEQDYYKVLISVKDSQGKRQVYEELHRAGDTVYAAVRYYGSGELEIHLNGKFYKTIK

>  <soluble fraction (log2)>
-0.521

$$$$
>  <record-sequence>
HMTTTYEINDEMLKPLILEIFNKSKQRFGSTKIAPVLKREGYTASIAKVKTLMNELGIKPVNA

>  <soluble fraction (log2)>
-0.319

$$$$
>  <record-sequence>
HMYIKYETVLQNITERIAALRKNGTLVLDGERTLAAEFDASRGTIRKAMRQLEENGTILREGYVTRILPE

>  <soluble fraction (log2)>
-1.61

$$$$
>  <record-sequence>
HMDMSDFEVVRDMYLTGKVWNAGDIVEAKGITGEVVRKGTNYLSFVDKNGKVHKAWLHEIEL

>  <soluble fraction (log2)>
-0.188

$$$$

Q: Item under review: HMEDKPITKEQKQAMFALLREHFSGDEGNAVYTAVLEREGLAPGDKIMSSVYDRLIDGINEAIRQKLEAGA . Reported soluble fraction (log2)?
A: 0.00629

Q: Try HMAVTNLTAKQISDTRWRVTWDSTLASPTYYVYRDGLLMMQTRQELYEFDAARGEQVQIDVLDDMAAAPAE next.
A: -0.741

====

test-description: soluble fraction after stress (log2 fold change); higher = more stays soluble; pooled small domains, quantitative proteomics
assay-context: stress: 50 degC
metric-name: soluble fraction (log2)
Enter a number only.

The cases that follow already have their soluble fraction (log2) on record.
>  <record-sequence>
HMIAPQISSGKVNTKELNVRSGPATTFGIVKKLPLNAMVGIFEEKNGWFRIATGQWVSKTYVDL

>  <soluble fraction (log2)>
-1.5

$$$$
>  <record-sequence>
HMGEVYPSDIVEKMKQANLHILEGTLYPLLTRLKNAGLLNYRWVESVTGPPRKYFVMTEEGKAAF

>  <soluble fraction (log2)>
0.0419

$$$$
>  <record-sequence>
HMANAGKFDSDMGEKINFPGNRVSLTPSELEAARELAAIMGDRFFSQLIPTTSKVTVTEMLQSLK

>  <soluble fraction (log2)>
0.3

$$$$

Q: What soluble fraction (log2) value was documented for this sequence, HMGEWHQMLRSWGETELKNGRQNILDEAVPAFERAMIETALAHTSGRKKDAALLLGWGRNTLTRKLQEHSI ?
A: -0.0702

Q: Query HMFANQLLLTRFDLNYIKSDVLSRQIDVLGIPIKKLTIEANNKSIWLQGTSQSLSKVRELIGIIDIRENA next
A: -3.1

Q: For HMVVVLPGETIKIDLIREGKDKQALGYLEDGTMIVVDNAKHLIGKNVEIEIDNVLPKEAGRVIFASLHGA then?
A: -0.109

Q: Likewise for HMHEYSRIYQQQWWDNATGADAYHVIHSARSRAAQDPEAARALEYLEEQFRIRYGVRTEDFLGYLHD ?
A: -0.411

Q: What do we get for HMEMKHKNSQIFQAIKLKHMGFTPTQISEELRVSRTTINHWLTKAQLKDVKWEDIRENSADELVKLLFG ?
A: -0.229

Data credit: the domain aggregation screens of Martell et al. (2025)
